Quick list: AUC(Norm)(0-x) per entry.
- PROCEDURE DETAILS: Pharmacokinetics in rats, IV or PO dosing, plasma LC-MS/MS
- Format: in vivo, Sprague Dawley rats
- CONDITION INFO: rat; 0.25 mg/kg; dose-normalised; plasma
OBSERVATION TYPE: AUC(Norm)(0-x) (µM·kg·h/mg)

INSERT INTO assay_data (molecule, recorded_measurement) VALUES
  ('CCn1nc(Oc2ccc(C(F)(F)F)cc2)cc1-c1cccc(C(C)(C)NS(=O)(=O)NCC(F)(F)F)c1 [Example 19]', 0.96),
  ('CCn1nc(-c2cccc(C3(NS(=O)(=O)NCC(F)(F)F)COC3)c2)cc1Oc1ccc(C(F)(F)F)cc1 [Example 96]', 0.09),
  ('CCn1nc(COc2ccc(F)cc2)cc1-c1cccc(C(C)(C)NS(=O)(=O)NC2CCC2)c1 [Example 2 from WO 2004/089911 A1, reference compound]', 0.79),
  ('CCn1nc(COc2ccc(C#N)cc2)cc1-c1cccc(C(C)(C)NS(=O)(=O)NC(F)(F)F)c1 [Example 27 from WO 2004/089911 A1, reference compound]', 0.92),
  ('CCn1nc(-c2cccc(C(C)(C)NS(=O)(=O)CC(F)(F)F)c2)cc1CN1CCC(C(F)(F)F)CC1 [Example 23 from WO 2004/089911 A1, reference compound]', 0.25);

###

Quick list: bioavailability per entry.
- PROCEDURE DETAILS: Pharmacokinetics in rats, IV or PO dosing, plasma LC-MS/MS
- Type: in vivo, Sprague Dawley rats
- CONDITION INFO: Sprague Dawley, plasma; rat; 0.25 mg/kg IV or PO
OBSERVATION TYPE: bioavailability

INSERT INTO results (compound, recorded_measurement) VALUES
  ('CCn1nc(Oc2ccc(C(F)(F)F)cc2)cc1-c1cccc(C(C)(C)NS(=O)(=O)NCC(F)(F)F)c1 [Example 19]', '75%'),
  ('CCn1nc(-c2cccc(C3(NS(=O)(=O)NCC(F)(F)F)COC3)c2)cc1Oc1ccc(C(F)(F)F)cc1 [Example 96]', '12%'),
  ('CCn1nc(COc2ccc(F)cc2)cc1-c1cccc(C(C)(C)NS(=O)(=O)NC2CCC2)c1 [Example 2 from WO 2004/089911 A1, reference compound]', '9%'),
  ('CCn1nc(COc2ccc(C#N)cc2)cc1-c1cccc(C(C)(C)NS(=O)(=O)NC(F)(F)F)c1 [Example 27 from WO 2004/089911 A1, reference compound]', '28%');

###

- PROCEDURE DETAILS: Pharmacokinetics in rats, IV or PO dosing, plasma LC-MS/MS
- Type: in vivo, Sprague Dawley rats
- CONDITION INFO: Sprague Dawley, intravenous; rat; 0.25 mg/kg; plasma; read-out: Rat Cl
OBSERVATION TYPE: clearance (mL/min/kg)

INSERT INTO assay_data (compound, observation_type, recorded_measurement) VALUES
  ('CCn1nc(Oc2ccc(C(F)(F)F)cc2)cc1-c1cccc(C(C)(C)NS(=O)(=O)NCC(F)(F)F)c1', 'clearance', 31),
  ('CCn1nc(COc2ccc(C#N)cc2)cc1-c1cccc(C(C)(C)NS(=O)(=O)NC(F)(F)F)c1 [Example 27 from WO 2004/089911 A1, reference compound]', 'clearance', 35),
  ('CCn1nc(-c2cccc(C(C)(C)NS(=O)(=O)CC(F)(F)F)c2)cc1CN1CCC(C(F)(F)F)CC1 [Example 23 from WO 2004/089911 A1, reference compound]', 'clearance', 120),
  ('CCn1nc(COc2ccc(F)cc2)cc1-c1cccc(C(C)(C)NS(=O)(=O)NC2CCC2)c1 [Example 2 from WO 2004/089911 A1, reference compound]', 'clearance', 43),
  ('CCn1nc(-c2cccc(C3(NS(=O)(=O)NCC(F)(F)F)COC3)c2)cc1Oc1ccc(C(F)(F)F)cc1', 'clearance', 41);
